Collected IC50 values appear next to each entry.
# Target Of Assay: ORAI1/STIM1 (Homo sapiens, UniProt Q13586+Q96D31)
# Sequence (Q96D31 whole entry): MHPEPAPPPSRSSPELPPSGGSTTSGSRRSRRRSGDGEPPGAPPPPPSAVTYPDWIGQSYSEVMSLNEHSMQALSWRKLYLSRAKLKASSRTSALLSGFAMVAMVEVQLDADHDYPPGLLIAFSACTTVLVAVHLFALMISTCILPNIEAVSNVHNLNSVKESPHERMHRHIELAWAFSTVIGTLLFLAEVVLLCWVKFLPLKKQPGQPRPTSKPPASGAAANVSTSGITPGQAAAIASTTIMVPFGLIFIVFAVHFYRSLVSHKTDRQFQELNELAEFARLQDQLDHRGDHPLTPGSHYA
# Sequence (Q13586 whole entry): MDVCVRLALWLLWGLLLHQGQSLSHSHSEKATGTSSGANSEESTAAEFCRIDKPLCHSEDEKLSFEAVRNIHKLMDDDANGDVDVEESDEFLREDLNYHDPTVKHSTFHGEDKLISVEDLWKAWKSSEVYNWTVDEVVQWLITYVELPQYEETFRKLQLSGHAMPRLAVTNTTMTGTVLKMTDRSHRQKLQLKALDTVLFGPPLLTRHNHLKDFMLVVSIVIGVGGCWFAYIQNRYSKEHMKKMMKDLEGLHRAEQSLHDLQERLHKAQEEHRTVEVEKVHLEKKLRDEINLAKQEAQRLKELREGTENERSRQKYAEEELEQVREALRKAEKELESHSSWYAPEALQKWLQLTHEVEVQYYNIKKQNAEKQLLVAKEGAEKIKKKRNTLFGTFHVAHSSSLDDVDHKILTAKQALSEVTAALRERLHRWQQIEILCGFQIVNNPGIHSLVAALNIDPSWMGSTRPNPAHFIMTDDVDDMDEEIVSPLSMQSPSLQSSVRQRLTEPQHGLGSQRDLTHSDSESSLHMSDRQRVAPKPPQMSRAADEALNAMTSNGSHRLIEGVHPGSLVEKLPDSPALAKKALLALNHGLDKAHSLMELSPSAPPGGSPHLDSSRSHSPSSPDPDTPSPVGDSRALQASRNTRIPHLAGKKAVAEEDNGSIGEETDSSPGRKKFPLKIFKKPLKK
# Assay Text: Inhibition of STIM1/Orai1 (unknown origin) expressed in HEK293 cells assessed as reduction in tBHQ-induced calcium response
Numbers only; they are read as nM.

Some compounds with recorded IC50:
For the compound `COc1cc(OC)cc(-c2ccc(-n3cc(-c4cccc(C(=O)O)c4)nn3)cc2)c1` , what IC50 is on record?
802

Quick one: IC50 of `COc1cccc(-c2ccc(-n3cc(-c4cccc(C(=O)O)c4)nn3)cc2)c1` ?
807

Which IC50 is listed for `O=C(O)c1cccc(-c2cn(-c3ccc(-c4ccc5c(c4)OCCO5)cc3)nn2)c1` ?
1200

Could you now look at the following compound, please?
# lookup: IC50 of `COc1cccc(-c2ccc(-n3cc(-c4cccc(C(=O)O)c4)nn3)cc2)c1OC`
851
